# Test system: PC-3 prostate
# PROTOCOL_NOTES: NCI tumour cell line growth inhibition, 48 h
TGI listing for selected compounds.
Value expressed in µM; do not type the unit.

Use these answered entries as a reference point.
CCCCCCOc1ccc(/C=N/Nc2cc(C)nc3ccc(Br)cc23)cc1	3.23
Cn1cc(C2=C(c3cn(CCCN/C(N)=N\[N+](=O)[O-])c4ccccc34)C(=O)NC2=O)c2ccccc21	17.2
Cc1nc2c(ccc3[nH]c4ccccc4c32)s1	47.9
CC(C)(C)OC(=O)/C=C/[C@@H](CCC(=O)/C=C/[C@H](/C=C\CCCC(=O)O)NC1(c2ccccc2)c2ccccc2-c2ccccc21)O[Si](C)(C)C(C)(C)C	36.2
N=C(N)c1ccc(-c2ccc(-c3ccccc3)o2)o1	10.1
C[C@@H](Br)[C@@H]1CC[C@H]2c3[nH]c4ccccc4c3CCN2C1	75.4
COc1cc(-c2nc3cc(Cl)c(Cl)cc3[nH]2)ccc1OCC(=O)N=Nc1c(O)[nH]c2ccccc12	2.07

Then this compound:
Lookup: Which TGI reading was recorded for the compound COc1ccc(C(CC(=O)c2ccc(O)cc2)C(C(=O)c2ccc(O)cc2)C(c2ccc(OC)cc2)C2C(=O)NC(=S)NC2=O)cc1 (centres undefined) ?
Found: 59.8
